# Tested on: LOX IMVI melanoma
# assay-summary: NCI tumour cell line growth inhibition, 48 h; in the data active means GI50 below about 0.43 µM; inactive means the rest
Classes used: active, inactive

* Nc1cc(NN=C(c2ccc(O)cc2)c2ccc(O)cc2)c([N+](=O)[O-])cc1[N+](=O)[O-] | inactive
* COc1ccc(-c2cn[nH]c2-c2cc(OC)c(OC)c(OC)c2)cc1 | active
* O=C(Nc1ccc(Oc2ccc(Nc3nc4ccccc4s3)cc2)cc1)Nc1ccc(Cl)c(C(F)(F)F)c1 | inactive
* c1ccc(Sc2ncnc3ccccc23)cc1 | inactive
* Cc1cc(I)cc(CN(CCCN(C)C)C(C)C)c1O | inactive
* COc1ccc2nc3cc(Cl)ccc3c(NCCNCC(C)O)c2c1 (configuration not stated) | inactive
* COC[C@H]1Cn2cc(-c3nc(Nc4ccnn4C)ncc3C)nc2C(=O)N1Cc1ccc(F)c(F)c1 | active
* COc1cccc(C(=O)NC(c2ccc(C)cc2)c2cc(Cl)c3cccnc3c2O)c1 (configuration not stated) | inactive
* O=C1CCCCN1c1ccccc1C#C/C=C\C#Cc1ccccc1C(F)(F)F | inactive
* CCOC(=O)C1=C(C)N(c2ccc(F)cc2F)[C@]2(C#N)C(O)=C(Cl)C(Cl)=C(O)[C@]12C#N | inactive
* Nc1n[nH]c2cc(F)c([C@@H]3Nc4ccc5[nH]ncc5c4[C@H]4C5CCC(C5)[C@@H]34)cc12 (some centres not stated) | active
* COCCOc1ccc(-c2nc3ccc(-c4nc5ccc(N6CCN(C)CC6)cc5[nH]4)cc3[nH]2)cc1 | inactive

###

# System: K-562 leukemia
# assay-summary: NCI tumour cell line growth inhibition, 48 h
readout-label: TGI

* CC1=Nc2ccccc2OC(C)=C1N=Nc1ccc2nc(C)[nH]c2c1 | > 100 µM
* CCc1c(OC(C)=O)c2c(NC3OCC(OC(C)=O)C(OC(C)=O)C3OC(C)=O)nc(SC)nc2oc1=O (configuration not stated) | > 100 µM
* O=C1NC(=NC(CO)Cc2ccccc2)S/C1=C\c1ccc2ncccc2c1 (configuration not stated) | > 25 µM
* COc1ccc(OC)c(N2CC(N)C2=O)c1 (configuration not stated) | > 100 µM
* CCOC(=O)Nc1sc2c(c1C#N)CCCC2 | > 100 µM
* Cc1ccc(NC(=O)c2ccc(OP(=O)(O)Nc3ccc(C)cc3)cc2)cc1 | > 100 µM
* O=C(Nc1ccc(Oc2ccc(Nc3nc4ccccc4s3)cc2)cc1)Nc1ccc(Cl)c(C(F)(F)F)c1 | 14.2 µM
* C[C@]12CCC3c4ccc(O)cc4CCC3C1CC[C@@]2(O)CNC(=O)/C=C/c1ccc(O)c(O)c1 (some centres not stated) | 12.6 µM
* COc1ccc2cc1Oc1ccc(cc1)C[C@H]1c3cc(c(OC)cc3CCN1C)Oc1c(O)c(OC)cc3c1[C@H](C2)N(C)CC3 | 83.5 µM
* Cc1cccc(Cn2c3c(c4cc(O)ccc42)C(=O)c2ccccc2C3=O)c1 | > 100 µM
* S=C(N/N=C(/c1ccccc1)c1ccccn1)N(Cc1ccccn1)Cc1ccccn1 | > 100 µM
* c1ccc(NCn2cnc3ccccc32)cc1 | > 100 µM
* CCC(=O)NCC1CCCN2CCCCC12 (configuration not stated) | > 100 µM
* C=CC1(CC/C(=C\[N+](=O)[O-])c2ccc(OC)c(OC)c2)OCC(C)(C)CO1 | > 100 µM
* CC1(C)O[C@H]2OC(CO[Si](C)(C)C(C)(C)C)C(N=[N+]=[N-])[C@H]2O1 (some centres not stated) | 29.1 µM
* NC(=O)c1ccccc1NC(=O)C(=O)C(C(=O)c1ccc(Cl)c(Cl)c1)C1OC(=O)c2ccccc21 (configuration not stated) | > 100 µM
* Cc1cc(I)cc(CN(CCCN(C)C)C(C)C)c1O | 34.7 µM
* COc1ccc(/C=c2\sc3n(c2=O)CCN=3)cc1 | > 100 µM
* Cn1c2ccc3cc2c(=S)c2cc(ccc21)OCCOCCOCCOCCOCCOCCO3 | > 10 µM
* COC[C@H]1Cn2cc(-c3nc(Nc4ccnn4C)ncc3C)nc2C(=O)N1Cc1ccc(F)c(F)c1 | > 100 µM
* CCN1C(=O)N(c2ccccc2)C2NC(=S)N(/N=C/C=C/c3ccccc3OC)C21 (configuration not stated) | > 100 µM
* N#C/C(=C\c1cccc(Cl)c1Cl)c1ccccc1 | > 100 µM
* CCOP(=O)(OCC)C(F)(F)c1ccc(CC(NC(=O)OC(C)(C)C)C(=O)O)cc1 (configuration not stated) | > 10 µM
* Oc1ccc(Cc2cc(Cc3ccc(O)cc3)cc(Cc3ccc(O)cc3)c2)cc1 | > 50 µM
* COc1ccc(N=NC(=Nc2ccccc2)c2ccc(N(CCC#N)CCC#N)cc2)cc1 | > 100 µM
* COC(=O)C(CCCN1C(=O)c2ccccc2C1=O)C(=O)OC | > 100 µM
* CCCOc1cc2ccccc2cc1C(=O)Nc1nc(N)c2c(ccc3nccc32)[nH]1 | 1.26 µM
* CCCCN(CCCC)C(=O)C(=O)C(C(=O)c1ccc(OC)cc1)c1ccc(OC)cc1 (configuration not stated) | > 100 µM
* COc1cc(/C(C#N)=C/c2nc3c(N4CCOCC4)nc(Cl)nc3n2C)cc(OC)c1OC | > 38.4 µM
* COc1cccc(C2SC(N)=Nc3c2c(C)nn3C(=O)c2ccccc2O)c1 (configuration not stated) | > 10 µM
* O=C(Cc1ccc(O)c(O)c1)NCc1c[nH]c2ccccc12 | > 100 µM
* O=C1c2cc3c(cc2-c2c1c1ccc(F)cc1c(=O)n2C[C@H](O)[C@@H](O)[C@H](O)CO)OCO3 | > 100 µM
* O=C(N/N=C/c1ccc(Cl)cc1)c1c(Cl)c(Cl)c(Cl)c(Cl)c1-c1nc2ccccc2[nH]1 | > 100 µM
* Cn1ccc2c3c(Oc4ccc(NC(N)=O)cc4)ccnc3ccc21 | > 100 µM
* CC(C)(C)c1cc2ccc(C(N)=O)cc2c(=O)[nH]1 | > 100 µM
* CCOC(=S)SCC(=O)O | > 100 µM
* O=C(O)c1ccc2c(c1C(=O)O)C(=O)OC2(c1ccc(O)cc1)c1ccc(O)cc1 | > 100 µM
* Cc1ccc(N(Cc2ccccc2)Cc2ccccc2)cc1 | > 100 µM
* COc1ccc2[nH]cc(/C=C(/C)c3ccncc3)c2c1 | > 100 µM
* Nc1n[nH]c2cccc(C#Cc3cccc(C(=O)Nc4ccc(CN5CCOCC5)c(C(F)(F)F)c4)c3)c12 | > 100 µM
* CC(=O)N1C(C(=O)NC2CCCCC2)CSC1c1ccccc1 (configuration not stated) | > 100 µM
* CC(=O)NNc1nc(C)c(C(=O)/C=C/c2ccc(NC(C)=O)cc2)s1 | > 100 µM

###

# System: SK-MEL-2 melanoma
# assay-summary: NCI tumour cell line growth inhibition, 48 h
readout-label: TGI

• Oc1ccc(Cc2cc(Cc3ccc(O)cc3)cc(Cc3ccc(O)cc3)c2)cc1 = > 50 µM
• COc1ccc(CN2C(=O)/C(=C\c3cc(OC)c(OC)c(OC)c3)c3ccccc32)cc1 = 4.11 µM
• COC(=O)c1c(C)nc2c1cc(O)c1[nH]c(C)c(C)nc12 = > 100 µM
• CC1=C(Cl)C=CP(=O)(Oc2ccccc2)C1 (configuration not stated) = > 100 µM
• COP(=O)(OC)C1=c2c(C)noc2=C2C=COC2C1=O (configuration not stated) = > 100 µM
• Cc1ccc(Oc2ccc(C)cc2N)cc1 = > 100 µM
• N[C@@H]1CCCC[C@@H]1N.O=P([O-])([O-])CN(CCN(CP(=O)([O-])[O-])CP(=O)([O-])[O-])CP(=O)([O-])[O-].[Pt+2] = > 25 µM
• COC(=O)CC(c1ccccc1)C1(c2ccccc2)SCCS1 (configuration not stated) = > 290 µM
• N#CC(C#N)=C/C=C(\Sc1nc2ccccc2s1)c1ccc(Cl)cc1 = > 100 µM
• CCCCN(CCCC)C(=O)C(=O)C(C(=O)c1ccc(OC)cc1)c1ccc(OC)cc1 (configuration not stated) = > 100 µM
• CC(C)[C@@H]1C=C2CC[C@H]3[C@](C)(CN)CCC[C@]3(C)[C@H]2CC1 = 14.2 µM
• CCN(CC)CCNC(=O)c1cc2cc(NC(=O)c3cc4cc([N+](=O)[O-])ccc4[nH]3)ccc2[nH]1 = > 100 µM
• COc1cc(S(=O)(=O)Nc2nc(-c3ccc(N4C(=O)C(CC(=O)O)SC4c4cccs4)cc3)cs2)ccc1Cl (configuration not stated) = 69.7 µM
• Cc1cccc(Cn2c3c(c4cc(O)ccc42)C(=O)c2ccccc2C3=O)c1 = > 100 µM
• CC1CN(C)c2ccccc2N=C1NN (configuration not stated) = > 100 µM
• CC(=O)Nc1nc(NC(C)=O)c2[nH]c(CO)nc2n1 = > 100 µM
• CCN(C(=O)N1CCN(c2cc3c(cc2F)c(=O)c(C(=O)O)cn3C2CC2)CC1)c1nc(-c2ccc(Cl)cc2)cs1 = 5.39 µM
• COC[C@H]1Cn2cc(-c3nc(Nc4ccnn4C)ncc3C)nc2C(=O)N1Cc1ccc(F)c(F)c1 = > 100 µM
• COc1ccc2nc3cc(Cl)ccc3c(NCCNCC(C)O)c2c1 (configuration not stated) = 4.26 µM
• CCOC(=O)c1c(CN2CCCC2)n(-c2ccccc2)c2cc(Br)c(O)cc12 = 33.3 µM
• COc1ccc(/C=N/NC(=O)c2cccc3cc[nH]c23)cc1O = > 100 µM
• O=C(/C=C/c1ccccc1)C[C@@H](O)C[C@@H]1CC=CC(=O)O1 = 33.9 µM
• CCOC(=O)N1CCN(Cc2cc(=O)n3ccc(C)cc3n2)CC1 = > 100 µM
• Cc1cc(Nc2ccc(S(=O)(=O)O)c3cc(S(=O)(=O)O)cc(S(=O)(=O)O)c23)c2ccccc2n1 = > 100 µM
• O=S(=O)(N/N=C/c1cccc(/C=N/NS(=O)(=O)c2ccccc2)c1)c1ccccc1 = > 100 µM
• Cc1cccc(C)c1NC(=O)CCCC(=O)C1/C(=N/NC(=O)CC#N)CCC/C1=N\NC(=O)CC#N (configuration not stated) = > 100 µM
• Cn1c(=O)c2c(nc3n2CC(C(=O)O)N3)n(C)c1=O (configuration not stated) = > 100 µM
• COc1ccc(/C=c2\sc3n(c2=O)CCN=3)cc1 = > 100 µM
• Nc1n[nH]c2cc(F)c([C@@H]3Nc4ccc5[nH]ncc5c4[C@H]4C5CCC(C5)[C@@H]34)cc12 (some centres not stated) = 20.1 µM
• COc1ccc(-n2c(C)nc3ccc(NC(=S)Nc4ccccc4)cc3c2=O)cc1 = > 100 µM
• c1ccc2c(c1)Cn1c-2nc2ccccc21 = > 100 µM
• CCN(CC)C(=S)N/N=C/c1cc([N+](=O)[O-])ccc1O = 65.6 µM
